- System: U-87 MG
- experiment_summary: Cytotoxicity against U87 cancer cell line
- Format: functional, cell-based, U-87MG ATCC
- test_parameters: Homo sapiens
Can you tell me IC50 for the items I'm about to list?
Number only, in µg/mL; omit the unit.

q: Record `C=C1C(=O)C[C@H]2C(C)(C)CCC[C@]2(C)[C@H]1C/C=C1\CCOC1=O` : what is its IC50 with U-87 MG?
a: 1.7

q: Record `C=C1[C@H](O)C[C@H]2C(C)(C)CCC[C@]2(C)[C@H]1C/C=C1\CCOC1=O` : what is its IC50 with U-87 MG?
a: 12.7

q: Record `C=C1[C@@H](O)C[C@H]2C(C)(C)CCC[C@]2(C)[C@H]1C/C=C1\CCOC1=O` : what is its IC50 with U-87 MG?
a: 36.8

q: Record `CC(=O)O[C@H]1C(=O)[C@@]2(C)[C@H]([C@H](OC(=O)c3ccccc3)[C@]3(O)C[C@H](OC(=O)[C@H](O)[C@@H](NC(=O)c4ccccc4)c4ccccc4)C(C)=C1C3(C)C)[C@]1(OC(C)=O)CO[C@@H]1C[C@@H]2O` : what is its IC50 with U-87 MG?
a: 3.2

q: Record `C=C1CC[C@H]2C(C)(C)CCC[C@]2(C)[C@H]1C/C=C1\CCOC1=O` : what is its IC50 with U-87 MG?
a: 5

q: Record `C=C1CC[C@H]2C(C)(C)CCC[C@]2(C)[C@H]1CC=O` : what is its IC50 with U-87 MG?
a: 4.1

====

- System: SiHa
- experiment_summary: Cytotoxicity against SiHa cancer cell line
- Assay type: functional, cell-based
- test_parameters: Homo sapiens
Please use the following IC50 ranges when assigning a class: bin 1 = under 7 µg/mL, bin 2 = from 7 µg/mL up to 20 µg/mL, bin 3 = 20 µg/mL and over

q: Determine which band this compound sits in: `CC1=CC[C@H]2C(C)(C)CCC[C@]2(C)[C@H]1C/C=C1\CCOC1=O`
a: bin 2

q: Determine which band this compound sits in: CC(=O)O[C@H]1C(=O)[C@@]2(C)[C@H]([C@H](OC(=O)c3ccccc3)[C@]3(O)C[C@H](OC(=O)[C@H](O)[C@@H](NC(=O)c4ccccc4)c4ccccc4)C(C)=C1C3(C)C)[C@]1(OC(C)=O)CO[C@@H]1C[C@@H]2O [PACLITAXEL]
a: bin 1

q: Determine which band this compound sits in: C=C1[C@@H](O)C[C@H]2C(C)(C)CCC[C@]2(C)[C@H]1C/C=C1\CCOC1=O [HEDYCHILACTONE A]
a: bin 3

q: Determine which band this compound sits in: `C=C1C(=O)C[C@H]2C(C)(C)CCC[C@]2(C)[C@H]1C/C=C1/CCOC1=O`
a: bin 1

q: Determine which band this compound sits in: `C=C1CC[C@H]2C(C)(C)CCC[C@]2(C)[C@H]1C/C=C1/CCOC1=O`
a: bin 3

q: Determine which band this compound sits in: `C=C1[C@H](O)C[C@H]2C(C)(C)CCC[C@]2(C)[C@H]1C/C=C1/CCOC1=O`
a: bin 3

q: Determine which band this compound sits in: `CC1=CC[C@H]2C(C)(C)CCC[C@]2(C)[C@H]1C/C=C1/CCOC1=O`
a: bin 3

q: Determine which band this compound sits in: `C=C1[C@@H](O)C[C@H]2C(C)(C)CCC[C@]2(C)[C@H]1C/C=C1/CCOC1=O`
a: bin 3

q: Determine which band this compound sits in: `C=C1CC[C@H]2C(C)(C)CCC[C@]2(C)[C@H]1CC=O`
a: bin 2

q: Determine which band this compound sits in: `CC1=CC[C@H]2C(C)(C)CCC[C@]2(C)[C@H]1CC=O`
a: bin 3

q: Determine which band this compound sits in: `C=C1[C@H](O)C[C@H]2C(C)(C)CCC[C@]2(C)[C@H]1C/C=C1\CCOC1=O`
a: bin 3

====

- Test system: U-87 MG
- experiment_summary: Cytotoxicity against U87 cancer cell line
- Type: functional, cell-based, U-87MG ATCC
- test_parameters: Homo sapiens
Can you tell me IC50 for the items I'm about to list?

q: # input molecule: `C=C1CC[C@H]2C(C)(C)CCC[C@]2(C)[C@H]1C/C=C1/CCOC1=O` ; wanted: its IC50
a: > 50 µg/mL

q: # input molecule: `CC1=CC[C@H]2C(C)(C)CCC[C@]2(C)[C@H]1C/C=C1/CCOC1=O` ; wanted: its IC50
a: > 50 µg/mL

q: # input molecule: `C=C1[C@@H](O)C[C@H]2C(C)(C)CCC[C@]2(C)[C@H]1C/C=C1/CCOC1=O` ; wanted: its IC50
a: > 50 µg/mL
